# Test system: HS 578T breast
# MEASUREMENT NOTES: NCI tumour cell line growth inhibition, 48 h
PROPERTY NAME: TGI

1) COc1ccc(-c2cc(/C=C3\C(=O)Nc4cc(Cl)ccc43)[nH]n2)cc1: 35 µM
2) CCOC(=O)c1c(NS(=O)(=O)c2ccc(C)cc2)sc2c1CCCC2: > 100 µM
3) CCOP(=O)(CCCC(O)CNc1nc(N)nc(Cl)c1N=Nc1ccc(Cl)cc1)OCC (centres undefined): 30.3 µM
4) O[C@@H]1C[C@H](Cl)c2c(Cl)sc(Cl)c21: > 100 µM

----------
# Tested on: ACHN renal
# MEASUREMENT NOTES: NCI tumour cell line growth inhibition, 48 h
PROPERTY NAME: TGI (µM)

1. O=[N+]([O-])c1ccc(/C=C/c2nc3ccc(Cl)cc3[nH]2)cc1: 50.9
2. CCn1c2nc(=O)n(CCCCCCCCSC(c3ccccc3)(c3ccccc3)c3ccccc3)c(=O)c-2nc2ccccc21: 60.8
3. C=C(C)[C@@H](O)[C@H](O)C[C@H](C)C1CC[C@]2(C)C1=CC[C@@H]1[C@@]3(C)CC[C@@H](OC(C)=O)C(C)(C)[C@@H]3C[C@@H](OC3OC(COC(C)=O)C(O)C(O)C3O)[C@]12C (stereo not given in full): 6.36

Source of measurements: PubChem BioAssay (NCI)
